- System: A498 Everolimus resistant type
- Setup Conditions: A498 Everolimus resistant type; drug combined with CFM4.16; MTT, CompuSyn
Item-by-item account of Combination Index (Cl) Drug + CFM4.16
Result Type: Combination Index (Cl) Drug + CFM4.16

Smiles Data | Value Measured
CO[C@H]1C[C@@H]2CC[C@@H](C)[C@@](O)(O2)C(=O)C(=O)N2CCCC[C@H]2C(=O)O[C@H]([C@H](C)C[C@@H]2CC[C@@H](OCCO)[C@H](OC)C2)CC(=O)[C@H](C)/C=C(\C)[C@@H](O)[C@@H](OC)C(=O)[C@H](C)C[C@H](C)/C=C/C=C/C=C/1C | 1.3
CC(C)(C)c1nc(-c2cccc(NS(=O)(=O)c3c(F)cccc3F)c2F)c(-c2ccnc(N)n2)s1 | 0.677
O=C(c1cc(Cc2n[nH]c(=O)c3ccccc23)ccc1F)N1CCN(C(=O)C2CC2)CC1 | 1.121
CC(=O)c1c(C)c2cnc(Nc3ccc(N4CCNCC4)cn3)nc2n(C2CCCC2)c1=O | 0.971

---

- System: OUK262 wild type
- Experiment Summary: MTT / CompuSyn combination index in OUK262 wild type RCC cells
- Setup Conditions: drug combined with CFM4.16
// values below are reported Combination Index (Cl) Drug + CFM4.16
Result Type: Combination Index (Cl) Drug + CFM4.16

Smiles Data | Value Measured
CC(C)(C)c1nc(-c2cccc(NS(=O)(=O)c3c(F)cccc3F)c2F)c(-c2ccnc(N)n2)s1 | 0.234
CO[C@H]1C[C@@H]2CC[C@@H](C)[C@@](O)(O2)C(=O)C(=O)N2CCCC[C@H]2C(=O)O[C@H]([C@H](C)C[C@@H]2CC[C@@H](OCCO)[C@H](OC)C2)CC(=O)[C@H](C)/C=C(\C)[C@@H](O)[C@@H](OC)C(=O)[C@H](C)C[C@H](C)/C=C/C=C/C=C/1C | 0.67
CC(=O)c1c(C)c2cnc(Nc3ccc(N4CCNCC4)cn3)nc2n(C2CCCC2)c1=O | 0.897
O=C(c1cc(Cc2n[nH]c(=O)c3ccccc23)ccc1F)N1CCN(C(=O)C2CC2)CC1 | 0.9878
